Run Description: Metabolic stability in human liver microsomes
Conditions Used: human, microsomes, pH 7.4, t1/2, pooled human liver microsomes 0.5 mg/mL; substrate 1 μM; NADPH 1 mM; 37° C.; 0-45 min
Protocol: Pooled human liver microsomes were purchased from a commercial supplier. Microsomes were stored at −80° C. prior to use. […] A minus cofactor control incubation was included for each test compound where 0.1 M phosphate buffer pH 7.4 was added instead of NADPH (minus NADPH). […] From a plot of ln peak area ratio (test compound peak area/internal standard peak area) against time, the gradient of the line was determined. […]
Structures can show the parent of a compound that is named as a salt.
Each entry gets N if its half-life at 1 μM stays under 100 min, and Y if its half-life at 1 μM is 100 min or above.

// below: answered molecules
Item Cl.[2H]C([2H])(N)Cc1cc(OC([2H])([2H])[2H])c(Br)cc1OC with half-life at 1 μM of 100 min or above?
Y

Evaluate Cl.[2H]C([2H])([2H])Oc1cc(Br)c(OC)cc1CCN : half-life at 1 μM at minimum 100 min?
N

Determine whether measured half-life at 1 μM meets or exceeds 100 min for COc1ccc2c(c1)[C@]13CCCC[C@@H]1[C@H](C2)N(C)CC3 [dextromethorphan, reference compound]
N

***
Reported half-life at 1 μM reaches at least 100 min for Cl.[2H]C([2H])([2H])Oc1cc(CCN)c(OC)cc1Br ?
Y

Record Cl.[2H]C([2H])(N)Cc1cc(OC)c(Br)cc1OC([2H])([2H])[2H] ; criterion: half-life at 1 μM no lower than 100 min. Met?
Y

Hello, I need to know if COc1cc(CCN)c(OC)cc1Br [2C-B HCl salt, 4-bromo-2,5-dimethoxyphenethylamine, reference compound] has measured half-life at 1 μM not below 100 min. Thanks!
Y

Hi, just wondering whether Cl.[2H]C([2H])([2H])Oc1cc(C([2H])([2H])C([2H])([2H])N)c(OC)cc1Br shows half-life at 1 μM of 100 min or higher.
Y

Test whether the molecule Cl.[2H]C([2H])([2H])Oc1cc(Br)c(OC)cc1C([2H])([2H])C([2H])([2H])N records half-life at 1 μM of 100 min or higher.
Y
